This collection of values is drawn from patent US20260315494A1.

# procedure_details: Single-dose pharmacokinetics of T+Ai pellet implant (80 mg testosterone + 4 mg anastrozole, subcutaneous)
# protocol_conditions: human, in vivo, sc, 4 mg, Measured serum anastrozole, GeoMean, geometric mean, 96 h post-dose
# Protocol: The premenopausal women were aged between 35 and 55 years of age with a BMI range of 20-30 kg/m^2. […] The implant was intended to be left in situ and was expected to be almost completely absorbed within three months following insertion. […] (NB: the sample collection time point at 6 hours post-dose was added for the third and subsequent subject and so serum measurements were not determined for the first two subjects as noted below). […]
measured_metric: concentration at 96 h (ng/mL)

| smiles_record | result_value |
| --- | --- |
| CC(C)(C#N)c1cc(Cn2cncn2)cc(C(C)(C)C#N)c1 | 4.58 |

====

# procedure_details: Single-dose pharmacokinetics of T+Ai pellet implant (80 mg testosterone + 4 mg anastrozole, subcutaneous)
# protocol_conditions: human, in vivo, sc, 80 mg, Measured serum testosterone, median, 1680 h post-dose
# Protocol: The premenopausal women were aged between 35 and 55 years of age with a BMI range of 20-30 kg/m^2. […] The implant was intended to be left in situ and was expected to be almost completely absorbed within three months following insertion. […] (NB: the sample collection time point at 6 hours post-dose was added for the third and subsequent subject and so serum measurements were not determined for the first two subjects as noted below). […]

| compound | concentration at 1680 h, ng/mL |
| --- | --- |
| C[C@]12CC[C@H]3[C@@H](CCC4=CC(=O)CC[C@@]43C)[C@@H]1CC[C@@H]2O [Testosterone, testosterone] | 1 |

====

# procedure_details: Single-dose pharmacokinetics of T+Ai pellet implant (80 mg testosterone + 4 mg anastrozole, subcutaneous)
# protocol_conditions: human, in vivo, sc, 4 mg, Measured serum anastrozole, mean, 72 h post-dose
# Protocol: The premenopausal women were aged between 35 and 55 years of age with a BMI range of 20-30 kg/m^2. […] The implant was intended to be left in situ and was expected to be almost completely absorbed within three months following insertion. […] (NB: the sample collection time point at 6 hours post-dose was added for the third and subsequent subject and so serum measurements were not determined for the first two subjects as noted below). […]

| compound | unit_string | concentration at 72 h |
| --- | --- | --- |
| CC(C)(C#N)c1cc(Cn2cncn2)cc(C(C)(C)C#N)c1 [Anastrozole] | ng/mL | 4.96 |

====

# procedure_details: Single-dose pharmacokinetics of T+Ai pellet implant (80 mg testosterone + 4 mg anastrozole, subcutaneous)
# protocol_conditions: human, in vivo, sc, 4 mg, Measured serum anastrozole, median, 6 h post-dose
measured_metric: concentration at 6 h (ng/mL)

| smiles_record | result_value |
| --- | --- |
| CC(C)(C#N)c1cc(Cn2cncn2)cc(C(C)(C)C#N)c1 | 3.08 |

====

# procedure_details: Single-dose pharmacokinetics of T+Ai pellet implant (80 mg testosterone + 4 mg anastrozole, subcutaneous)
# protocol_conditions: human, in vivo, sc, 4 mg, Measured serum anastrozole, individual subject, 24 h post-dose

| smiles_record | concentration at 24 h |
| --- | --- |
| CC(C)(C#N)c1cc(Cn2cncn2)cc(C(C)(C)C#N)c1 | 6.08 ng/mL |

====

# procedure_details: Single-dose pharmacokinetics of T+Ai pellet implant (80 mg testosterone + 4 mg anastrozole, subcutaneous)
# protocol_conditions: human, in vivo, sc, 80 mg, Measured serum testosterone, mean, 8 h post-dose
# Description: The premenopausal women were aged between 35 and 55 years of age with a BMI range of 20-30 kg/m^2. […] The implant was intended to be left in situ and was expected to be almost completely absorbed within three months following insertion. […] (NB: the sample collection time point at 6 hours post-dose was added for the third and subsequent subject and so serum measurements were not determined for the first two subjects as noted below). […]
measured_metric: concentration at 8 h

| smiles_record | measured_metric | result_value |
| --- | --- | --- |
| C[C@]12CC[C@H]3[C@@H](CCC4=CC(=O)CC[C@@]43C)[C@@H]1CC[C@@H]2O | concentration at 8 h | 3.55 ng/mL |
